- Target entity: Rat Androgen Receptor (Rattus norvegicus, UniProt P15207)
- Construct: ventral prostates collected from 24 h-gonadectomized rats were homogenized in buffer A; from tissue; host or cells: rat ventral prostate cytosol (24 h-gonadectomized rats)
- Sequence (P15207 1-902): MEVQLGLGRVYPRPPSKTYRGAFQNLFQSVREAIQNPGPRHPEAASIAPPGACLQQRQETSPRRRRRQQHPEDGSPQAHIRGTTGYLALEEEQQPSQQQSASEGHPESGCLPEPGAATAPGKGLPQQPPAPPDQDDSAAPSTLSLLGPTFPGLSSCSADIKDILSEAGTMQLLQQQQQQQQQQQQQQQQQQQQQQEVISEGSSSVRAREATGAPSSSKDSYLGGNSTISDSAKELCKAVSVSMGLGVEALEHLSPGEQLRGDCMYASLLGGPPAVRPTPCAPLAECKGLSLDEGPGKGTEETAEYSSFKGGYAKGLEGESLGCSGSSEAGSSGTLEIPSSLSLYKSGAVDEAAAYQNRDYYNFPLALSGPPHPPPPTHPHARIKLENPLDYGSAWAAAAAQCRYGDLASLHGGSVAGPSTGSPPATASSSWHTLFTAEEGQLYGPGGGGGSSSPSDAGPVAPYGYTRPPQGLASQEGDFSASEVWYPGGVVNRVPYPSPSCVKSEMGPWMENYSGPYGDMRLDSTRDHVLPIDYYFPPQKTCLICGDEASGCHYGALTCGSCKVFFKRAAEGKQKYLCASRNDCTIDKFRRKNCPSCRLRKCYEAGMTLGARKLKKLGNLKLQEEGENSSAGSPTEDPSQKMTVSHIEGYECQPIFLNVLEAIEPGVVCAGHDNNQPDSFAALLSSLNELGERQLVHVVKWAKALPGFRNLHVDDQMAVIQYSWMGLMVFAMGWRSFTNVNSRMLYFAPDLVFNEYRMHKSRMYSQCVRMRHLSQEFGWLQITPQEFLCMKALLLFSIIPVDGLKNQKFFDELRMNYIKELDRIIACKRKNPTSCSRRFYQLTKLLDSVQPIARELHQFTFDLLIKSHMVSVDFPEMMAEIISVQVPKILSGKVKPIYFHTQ
- Assay remarks: Androgen receptor binding assay (HAP, [3H]R1881), rat prostate cytosol
Recorded Rat Androgen Receptor Binding RBA (%) R1881 = 100% values for a group of compounds are listed next.
Measurement type: Rat Androgen Receptor Binding RBA (%) R1881 = 100%

| Compound | Target entity | Observed value |
| --- | --- | --- |
| C[C@]12CCC3c4ccc(C#N)c(F)c4CCC3C1CC[C@@]2(O)Cc1cc[n+]([O-])cc1 (stereo partly drawn) | Rat Androgen Receptor (Rattus norvegicus, UniProt P15207) | 0.4 |
| CC(C)(O)C(=O)Nc1ccc([N+](=O)[O-])c(C(F)(F)F)c1 [Hydroxyflutamide, reference compound] | Rat Androgen Receptor (Rattus norvegicus, UniProt P15207) | 0.1 |
| Cc1c(C#N)ccc2c1CCC1C2CCC2(C)C1CCC2(O)Cc1cc[n+]([O-])cc1 (stereo not drawn) | Rat Androgen Receptor (Rattus norvegicus, UniProt P15207) | 0.6 |
| CC12CCC3c4ccc(C#N)c(Cl)c4CCC3C1CCCC2(O)Cc1cc[n+]([O-])cc1 (stereo not drawn) | Rat Androgen Receptor (Rattus norvegicus, UniProt P15207) | 0.3 |

###

- System: Immature Rat CX + DHT
- Assay remarks: animal or person
- Type: in vivo
- Measurement context: Rattus norvegicus, po, 168 h, read-out: In Vivo Antagonist % Change vs DHT (CX = −100%) VP
Quick rule for you: change in vivo at 0.5 mg at -50% or higher means satisfied, lower means not satisfied.

| Compound | Class |
| --- | --- |
| CC(C)C(=O)Nc1ccc([N+](=O)[O-])c(C(F)(F)F)c1 [Flutamide, reference compound] | satisfied |
| C[C@]12CCC3c4ccc(C#N)c(F)c4CCC3C1CC[C@@]2(O)Cc1cc[n+]([O-])cc1 (some centres unmarked) | not satisfied |
| C[C@]12CCC3c4ccc(C#N)cc4CCC3C1CC[C@@]2(O)Cc1ccc(-c2ccncc2)cc1 (some centres unmarked) | not satisfied |
| C[C@]12CCC3c4ccc(C#N)c(Cl)c4CCC3C1CC[C@@]2(O)Cc1cc[n+]([O-])cc1F (some centres unmarked) | not satisfied |

###

- Assay remarks: in vivo
- Measurement context: male, Sprague-Dawley, rat, plasma, po, 0.5 mg

| Compound | AUC, ng·h/mL |
| --- | --- |
| C[C@]12CCC3c4ccc(C#N)c(F)c4CCC3C1CC[C@@]2(O)Cc1cc[n+]([O-])cc1 (stereo partly shown) [EM-5854] | 2930 |

###

- Target entity: Human Androgen Receptor (Homo sapiens, UniProt P10275)
- Construct: expressed in transfected cells; host or cells: HEK-293 cells stably transfected with the pCMVneo-hAR plasmid (G-418 selection); cytosol used
- Sequence (P10275 whole entry): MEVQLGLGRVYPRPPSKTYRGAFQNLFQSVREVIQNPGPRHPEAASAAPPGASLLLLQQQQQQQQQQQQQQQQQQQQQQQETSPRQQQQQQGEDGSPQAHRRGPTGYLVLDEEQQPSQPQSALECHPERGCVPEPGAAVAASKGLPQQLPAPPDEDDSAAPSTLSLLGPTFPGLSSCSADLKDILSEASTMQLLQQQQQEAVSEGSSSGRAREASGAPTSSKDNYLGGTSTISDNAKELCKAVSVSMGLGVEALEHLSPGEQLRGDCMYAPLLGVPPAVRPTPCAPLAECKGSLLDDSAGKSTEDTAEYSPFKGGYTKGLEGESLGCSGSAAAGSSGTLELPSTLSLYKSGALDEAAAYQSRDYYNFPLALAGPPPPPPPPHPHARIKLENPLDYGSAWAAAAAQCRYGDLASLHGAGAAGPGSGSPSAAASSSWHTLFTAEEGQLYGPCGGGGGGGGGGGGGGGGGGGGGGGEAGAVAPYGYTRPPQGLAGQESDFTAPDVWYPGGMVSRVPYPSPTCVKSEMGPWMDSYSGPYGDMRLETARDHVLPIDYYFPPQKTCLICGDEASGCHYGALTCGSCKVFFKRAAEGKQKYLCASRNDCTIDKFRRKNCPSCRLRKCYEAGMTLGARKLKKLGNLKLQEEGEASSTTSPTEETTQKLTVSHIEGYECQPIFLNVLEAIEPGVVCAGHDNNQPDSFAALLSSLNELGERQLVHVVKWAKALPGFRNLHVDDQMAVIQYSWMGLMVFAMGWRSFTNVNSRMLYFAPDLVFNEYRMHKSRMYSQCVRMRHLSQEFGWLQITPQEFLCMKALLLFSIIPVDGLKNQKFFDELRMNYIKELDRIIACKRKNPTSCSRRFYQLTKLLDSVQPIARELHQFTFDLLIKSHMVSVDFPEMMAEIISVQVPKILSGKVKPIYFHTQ
- Type: binding
Human Androgen Receptor Binding RBA (%) R1881 = 100% less than 30% is met; Human Androgen Receptor Binding RBA (%) R1881 = 100% greater than or equal to 30% is not met.

| Compound | Class |
| --- | --- |
| C[C@H]1C[C@@]2(C)C(CC[C@@]2(O)Cc2ccncc2F)C2CCc3c(ccc(C#N)c3F)C21 (some centres unmarked) | not met |
| CCC1CC2(C)C(CCC2(O)Cc2cc[n+]([O-])cc2F)C2CCc3c(ccc(C#N)c3F)C12 (centres unmarked) | not met |
| C[C@]12CCC3c4ccc(C#N)c(F)c4CCC3C1CC[C@@]2(O)Cc1ccncc1F (some centres unmarked) | met |
| Cc1c(C#N)ccc2c1CCC1C2CCC2(C)C1CCCC2(O)Cc1cc[n+]([O-])cc1 (centres unmarked) | met |
| C[C@]12CCC3c4ccc(C#N)c(F)c4CCC3C1CC[C@@]2(O)Cc1cc[n+]([O-])cc1 (some centres unmarked) | met |
| C[C@]12CCC3c4ccc(C#N)c(F)c4CCC3C1CC[C@@]2(O)Cc1cc[n+]([O-])cc1Cl (some centres unmarked) | met |
| CC12CCC3c4ccc(C#N)c(F)c4CCC3C1CCC2(O)Cc1ccc(-c2ccc[n+]([O-])c2)cc1 (centres unmarked) | not met |
| Cc1c(C#N)ccc2c1CCC1C2CC[C@@]2(C)C1CC[C@@]2(O)Cc1ccncc1 (some centres unmarked) | met |

###

- Target entity: Human Androgen Receptor (Homo sapiens)
- Construct: expressed in transfected cells; host or cells: HEK-293 cells stably transfected with the pCMVneo-hAR plasmid (G-418 selection); cytosol used
- Format: binding
Listed below: Human Androgen Receptor Binding RBA (%) R1881 = 100% values for each entry.
Measurement type: Human Androgen Receptor Binding RBA (%) R1881 = 100%

| Compound | Units symbol | Observed value |
| --- | --- | --- |
| Cc1cnccc1C[C@]1(O)CCC2C3CCc4c(ccc(C#N)c4F)C3CC[C@@]21C (some centres unmarked) | % | 6.1 |
| C[C@H]1C[C@@]2(C)C(CC[C@@]2(O)Cc2ccncc2)C2CCc3c(ccc(C#N)c3F)C21 (some centres unmarked) | % | 331 |
| C[C@]12CCC3c4ccc(C#N)c(Cl)c4CCC3C1CCC[C@@]2(O)Cc1ccncc1 (some centres unmarked) | % | 26 |
| C[C@]12CCC3c4ccc(C#N)c(Cl)c4CCC3C1CC[C@@]2(O)Cc1ccncc1F (some centres unmarked) | % | 97 |
| CC[C@H]1C[C@@]2(C)C(CC[C@@]2(O)Cc2ccncc2)C2CCc3c(ccc(C#N)c3F)C21 (some centres unmarked) | % | 508 |
| CC12CCC3c4ccc(C#N)c(Cl)c4CCC3C1CCCC2(O)Cc1cc[n+]([O-])cc1 (centres unmarked) | % | 2.8 |
| C[C@]12CCC3c4ccc(C#N)c(Cl)c4CCC3C1CC[C@@]2(O)Cc1cc[n+]([O-])cc1F (some centres unmarked) | % | 6.8 |

###

- Test system: Immature Rat CX
In Vivo Agonist Rat CX % change vs CX (DHT CONT = +100%) VP: recorded values
Measurement type: In Vivo Agonist Rat CX % change vs CX (DHT CONT = +100%) VP

| Compound | Observed value |
| --- | --- |
| CC[C@H]1C[C@@]2(C)C(CC[C@@]2(O)Cc2ccncc2F)C2CCc3c(ccc(C#N)c3F)C21 (stereo partly shown) | +13 ± 2% |
| CCC1CC2(C)C(CCC2(O)Cc2cc[n+]([O-])cc2F)C2CCc3c(ccc(C#N)c3F)C12 (stereo not shown) | +24 ± 5% |
| C[C@@]1(Cc2ccc(C#N)cc2)CC2C3CCc4c(C#N)cccc4C3CC[C@]2(C)[C@H]1O (stereo partly shown) | +20 ± 4% |
| CCC1CC2(C)C(CCC2(O)Cc2cc[n+]([O-])cc2)C2CCc3c(ccc(C#N)c3F)C12 (stereo not shown) | +56 ± 11% |
| CC[C@H]1C[C@@]2(C)C(CC[C@@]2(O)Cc2ccncc2)C2CCc3c(ccc(C#N)c3F)C21 (stereo partly shown) | +35 ± 3% |
| CC12CCC3c4ccc(C#N)c(F)c4CCC3C1CCC2(O)Cc1ccc(-c2ccc[n+]([O-])c2)cc1 (stereo not shown) | +39 ± 6% |
| CC1CC2(C)C(CCC2(O)Cc2cc[n+]([O-])cc2F)C2CCc3c(ccc(C#N)c3F)C12 (stereo not shown) | +28 ± 3% |
| C[C@H]1C[C@@]2(C)C(CC[C@@]2(O)Cc2ccncc2)C2CCc3c(ccc(C#N)c3F)C21 (stereo partly shown) | +37 ± 3% |
| C[C@H]1C[C@@]2(C)C(CC[C@@]2(O)Cc2cc[n+]([O-])cc2)C2CCc3c(ccc(C#N)c3F)C21 (stereo partly shown) | +37 ± 7% |
| C[C@H]1C[C@@]2(C)C(CC[C@@]2(O)Cc2ccncc2F)C2CCc3c(ccc(C#N)c3F)C21 (stereo partly shown) | +28 ± 7% |

All figures here come from patent US9284345B2.
